growth inhibition reference
experiment: NCI Yeast Anticancer Drug Screen. Data for the sgs1 strain (AID 173);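 note: 0% = growth of vehicle-only control cultures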; settings: S. cerevisiae sgs1 mutant, at 100.0 µM, active compounds read high
The panel holds about 79,000 compounds, 15% with a hit somewhere; the sample as a whole holds those more often.
parameter: growth inhibition (%)

{"molecule": "CC1=C(SCCO)C(=O)c2ccccc2C1=O", "parameter": "growth inhibition", "unitsText": "%", "result": 35}
{"molecule": "C[C@@H]1C[C@H]2[C@@H]3CCC4=CC(=O)C=C[C@]4(C)[C@@]3(Cl)[C@@H](Cl)C[C@]2(C)[C@@]1(O)C(=O)COP(=O)(O)O", "parameter": "growth inhibition", "unitsText": "%", "result": -1}
{"molecule": "CC1OCC2OC(C)OC(C3C4=C(CC(C)(C)CC4=O)OC4=C3C(=O)CC(C)(C)C4)C2O1 (stereo unspecified)", "parameter": "growth inhibition", "unitsText": "%", "result": 65}
{"molecule": "O=[N+]([O-])c1cc2no[n+]([O-])c2cc1N1CCCCC1", "parameter": "growth inhibition", "unitsText": "%", "result": 98}
{"molecule": "COc1ccc2ccc3ccccc3c2c1C=O", "parameter": "growth inhibition", "unitsText": "%", "result": 50}
{"molecule": "S=c1[nH]nc(Nc2ccc(Cl)cc2)s1", "parameter": "growth inhibition", "unitsText": "%", "result": 91}

----------
assay: NCI Yeast Anticancer Drug Screen. Data for the rad14 strain (AID 159);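 note: 0% = growth of vehicle-treated control cultures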; details: S. cerevisiae rad14 strain growth inhibition; at 33.0 µM
About 79,000 compounds went through this panel and 15% of them were active in at least one assay; those are over-represented in the sample as a whole. Active and inactive are the calls of the source. Cut-off read from the data, not from the text of the source: active = growth inhibition above about 70%; inactive = the rest.
Classes used: 1 = active, -1 = inactive

{"compound": "CC(C)c1ccccc1NC(=O)/C(Cl)=C(\\Cl)C(=O)O", "categoryLabel": -1}
{"compound": "CCCC/C=C/C(CC)(C(=O)OCC)C(=O)OCC", "categoryLabel": -1}
{"compound": "c1ccc2c(c1)sc1nc3ccncc3nc12", "categoryLabel": -1}
{"compound": "CCC#CCCCOC(=O)c1cc([N+](=O)[O-])cc([N+](=O)[O-])c1", "categoryLabel": 1}
{"compound": "CC(C)NC(=O)OCc1c(COC(=O)NC(C)C)c(-c2ccc(Cl)c(Cl)c2)n2c1CCC2", "categoryLabel": -1}
{"compound": "COc1ccc(/C(C)=N/OC(=O)c2c(-c3ccccc3Cl)noc2C)cc1CN1CCOCC1", "categoryLabel": -1}
{"compound": "O=C1c2ccccc2C(=O)c2cc(CBr)ccc21", "categoryLabel": -1}
{"compound": "N#CC(C(=O)Nc1ccccc1)C1=C(Cl)C(=O)c2ccccc2C1=O (stereo unspecified)", "categoryLabel": 1}
{"compound": "Cc1ccc(NN(NC(=O)OC(C)C)C(=O)OC(C)C)cc1", "categoryLabel": -1}
{"compound": "CCCCCCc1cc(C(=O)OC/C(C)=N/NC(N)=O)c2ccccc2n1", "categoryLabel": -1}
{"compound": "S=C(S)NN1CCOCC1", "categoryLabel": -1}

----------
assay: NCI Yeast Anticancer Drug Screen. Data for the CLN2oe strain (AID 163);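 note: 0% = growth of vehicle-only control cultures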; conditions: S. cerevisiae CLN2oe strain, at 33.0 µM
Compounds without any hit were thinned out: in the full panel of roughly 79,000, 15% have a hit. Activity calls are given as the source filed them. Rule as the data show it: active = growth inhibition above about 70%; inactive = the rest.
Classes used: active, inactive

{"compound": "O=C1C(Nc2ccccc2)=C(Oc2ccccc2)C(=O)c2ccccc21", "categoryLabel": "inactive"}
{"compound": "CC(=O)Oc1cc(-c2cc(OC(C)=O)c(OC(C)=O)c3ccccc23)c2ccccc2c1OC(C)=O", "categoryLabel": "inactive"}
{"compound": "CCC(=O)OCCn1c2nc(=O)[nH]c(=O)c-2nc2cc(C)c(C)cc21", "categoryLabel": "inactive"}
{"compound": "CN(C)c1ccc(Sc2ccc3nc(N)nc(N)c3c2)cc1", "categoryLabel": "inactive"}
{"compound": "CSC(=S)N/N=C(\\C)c1cccc(C)n1", "categoryLabel": "inactive"}
{"compound": "COC(=O)c1ccc(CCC2=CC(=O)C(Br)=CC2=O)cc1", "categoryLabel": "inactive"}
{"compound": "CCC/C(Cl)=N\\OC(=O)Nc1ccc(Br)cc1", "categoryLabel": "active"}
{"compound": "C(CCSC1=NCCN1)CSC1=NCCN1 (tested in a mixture with another compound)", "categoryLabel": "active"}
{"compound": "CCCCCCCC1(N=[N+]=[N-])C(=O)c2ccccc2N(C)C1=O (stereo not given)", "categoryLabel": "inactive"}
{"compound": "Cc1cc2c(cc1C(=O)CCC(=O)O)CC1(C2)Cc2cc(C)c(C(=O)CCC(=O)O)cc2C1", "categoryLabel": "inactive"}
